Each recorded value in this set is attributed to PubChem BioAssay (EPA / NIEHS).

Test Summary: BSK_3C_uPAR: BioMAP Diversity Plus: 3C Assay for Urokinase-type plasminogen activator receptor (uPAR) Biomarker Activity (AID 2282998)
Test Settings: BioMAP 3C HUVEC, uPAR biomarker ELISA; actives raise or lower the signal
Description: BSK_3C is a cell-based, multiplexed-readout assay that uses umbilical vein endothelium, a human vascular primary cell, with measurements taken at 24 hours after chemical dosing in a 96-well plate.BSK_3CAR is an assay component measured in the BSK_3C assay. It measures uPAR antibody related to regulation of gene expression using ELISA technology.Data from the assay component BSK_3CAR was analyzed into 1 assay endpoint. […]
Active and inactive are the calls of the source. The calls were made as follows: active = hit-call score of the fitted dose curve at least 0.9, where 1 is the maximum; inactive = score below 0.9.
Answer with one of the outcomes given here: active, inactive

COP(=S)(OC)SCn1nnc2ccccc2c1=O : inactive

Q: How did this test come out for CCSC(=O)N1CCCCCC1 ?
Ans: inactive

Q: How did this test come out for CCCN(CC)CC1COC2(CCC(C(C)(C)C)CC2)O1 (stereo not given) ?
Ans: inactive

Q: How did this test come out for CC(C)Nc1nc(Cl)nc(NC(C)C)n1 ?
Ans: inactive

Q: How did this test come out for COC(=O)NC(=S)Nc1ccccc1NC(=S)NC(=O)OC ?
Ans: inactive

Q: How did this test come out for CSC(=O)c1c(C(F)F)nc(C(F)(F)F)c(C(=O)SC)c1CC(C)C ?
Ans: active

Q: How did this test come out for CC1(C)C(C(=O)OC(C#N)c2cccc(Oc3ccccc3)c2)C1(C)C (stereo not given) ?
Ans: inactive

Q: How did this test come out for CCOP(=S)(OCC)Oc1nc(Cl)n(C(C)C)n1 ?
Ans: inactive

Q: How did this test come out for O=c1n(Cl)c(=O)n(Cl)c(=O)n1Cl ?
Ans: inactive

Q: How did this test come out for O=C(O)c1c(Cl)ccc2cc(Cl)cnc12 ?
Ans: inactive

Q: How did this test come out for CCCCC(C#N)(Cn1cncn1)c1ccc(Cl)cc1 (stereo not given) ?
Ans: inactive

Q: How did this test come out for CC1(C)C(C=C(Cl)Cl)C1C(=O)OC(C#N)c1cccc(Oc2ccccc2)c1 (stereo not given) ?
Ans: active

Q: How did this test come out for CO/N=C(/C1=NOCCO1)c1ccccc1Oc1ncnc(Oc2ccccc2Cl)c1F ?
Ans: active

Q: How did this test come out for Cc1ccc(N=CN(C)C=Nc2ccc(C)cc2C)c(C)c1 ?
Ans: active

Q: How did this test come out for CNC(=O)N(C)c1nnc(C(C)(C)C)s1 ?
Ans: inactive

Q: How did this test come out for COCC(=O)N(c1c(C)cccc1C)C(C)C(=O)OC (stereo not given) ?
Ans: inactive

Q: How did this test come out for C=CCOC(=O)C(C)(C)OC(=O)c1cc(-n2c(=O)cc(C(F)(F)F)n(C)c2=O)ccc1Cl ?
Ans: active

Q: How did this test come out for COC(=O)NS(=O)(=O)c1ccc(N)cc1 ?
Ans: inactive

Q: How did this test come out for CC(C)=CC1C(C(=O)OCc2coc(Cc3ccccc3)c2)C1(C)C (stereo not given) ?
Ans: active

Q: How did this test come out for COP(=S)(OC)Oc1ccc([N+](=O)[O-])c(C)c1 ?
Ans: active

---

Read-out: Bcl-2 (BAX) gene, BAX (gene 581)
Test Summary: LTEA_HepaRG_BAX: Life Technologies and Expression Analysis (LTEA) Assay for Bcl-2 (BAX) gene using HepaRG (AID 2283470)
Test Settings: mRNA level, 48 h; actives raise or lower the signal
The source made the active and inactive calls. How the source made its calls: active means hit-call score of the fitted dose curve at least 0.9, where 1 is the maximum; inactive means score below 0.9.
Answer with one of the outcomes given here: TRUE (active), FALSE (inactive)

O=C1C2CC=CCC2C(=O)N1SC(Cl)(Cl)Cl (stereo unspecified) : FALSE
Cc1c(COC(=O)[C@@H]2[C@H](/C=C(\Cl)C(F)(F)F)C2(C)C)cccc1-c1ccccc1 : FALSE
COc1cc(OC)nc(NC(=O)NS(=O)(=O)c2ncccc2OCC(F)(F)F)n1 : FALSE

Q: How did this test come out for Nc1cnn(-c2ccccc2)c(=O)c1Cl ?
Ans: FALSE

Q: How did this test come out for COCC(=O)N(c1c(C)cccc1C)C(C)C(=O)OC (stereo unspecified) ?
Ans: FALSE

Q: How did this test come out for Cn1c(-c2ccccc2)cc(-c2ccccc2)[n+]1C ?
Ans: FALSE

Q: How did this test come out for CN/C(=N\[N+](=O)[O-])NCc1cnc(Cl)s1 ?
Ans: FALSE

Q: How did this test come out for CCOc1nc(F)cc2nc(S(=O)(=O)Nc3c(Cl)cccc3Cl)nn12 ?
Ans: FALSE

Q: How did this test come out for N#CN=C1SCCN1Cc1ccc(Cl)nc1 ?
Ans: FALSE

Q: How did this test come out for CCCC(=NOCC)C1=C(O)CC(CC(C)SCC)CC1=O (stereo unspecified) ?
Ans: FALSE

Q: How did this test come out for CS(=O)(=O)c1cc(C(F)(F)F)ccc1C(=O)c1cnoc1C1CC1 ?
Ans: FALSE

Q: How did this test come out for Nc1c(Cl)c(Cl)nc(C(=O)O)c1Cl ?
Ans: FALSE

Q: How did this test come out for CCN(CC)c1nc(C)cc(OP(=S)(OC)OC)n1 ?
Ans: FALSE

Q: How did this test come out for CC(C)Nc1nc(Cl)nc(NC(C)C)n1 ?
Ans: FALSE

Q: How did this test come out for COP(=O)(OC)O/C(C)=C/C(=O)N(C)C ?
Ans: FALSE

Q: How did this test come out for CCNC(=O)NC(=O)C(C#N)=NOC ?
Ans: FALSE

Q: How did this test come out for COC(=O)NS(=O)(=O)c1ccc(N)cc1 ?
Ans: FALSE

Q: How did this test come out for N#Cc1c(Cl)cccc1Cl ?
Ans: FALSE

Q: How did this test come out for CCCCOCN(C(=O)CCl)c1c(CC)cccc1CC ?
Ans: FALSE

Q: How did this test come out for CO/N=C(/C1=NOCCO1)c1ccccc1Oc1ncnc(Oc2ccccc2Cl)c1F ?
Ans: TRUE

Q: How did this test come out for CSC(=O)c1c(C(F)F)nc(C(F)(F)F)c(C(=O)SC)c1CC(C)C ?
Ans: FALSE

Q: How did this test come out for CCSC(=O)N1CCCCCC1 ?
Ans: FALSE

---

Read-out: xenobiotic metabolism (CYP1A2), CYP1A2 (gene 1544)
Test Summary: CLD_CYP1A2_48hr: CellzDirect (CLD) Gene Expression Assay for xenobiotic metabolism (CYP1A2) at 48 hours (AID 2283703)
Records with an inconclusive call do not appear. The source made the active and inactive calls. The calls were made as follows: active = hit-call score of the fitted dose curve at least 0.9, where 1 is the maximum; inconclusive = response in the unintended direction; inactive = score below 0.9.
Answer with one of the outcomes given here: Y for active, N for inactive

Below, 4 compounds whose answers are already recorded.
C=C(C)CN(CC)c1c([N+](=O)[O-])cc(C(F)(F)F)cc1[N+](=O)[O-] : N
N#Cc1c[nH]cc1-c1cccc2c1OC(F)(F)O2 : Y
CC1(C)CCC(=Cc2ccc(Cl)cc2)C1(O)Cn1cncn1 (stereo unspecified) : Y
CC(C)NC(=O)N1CC(=O)N(c2cc(Cl)cc(Cl)c2)C1=O : Y

Q: How did this test come out for COC(=O)c1c(C(F)F)nc(C(F)(F)F)c(C2=NCCS2)c1CC(C)C ?
Ans: Y

Q: How did this test come out for Nc1c(Cl)c(Cl)nc(C(=O)O)c1Cl ?
Ans: Y

---

Study System: GAL4 Transcription Factor (Internal Marker), GAL4 (gene 855828)
Test Summary: ATG_GAL4_XSP2: Attagene TRANS-FACTORIAL Multi-Species (XSP2) HepG2 Assay for GAL4 Transcription Factor (Internal Marker) (AID 2283814);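 also: GAL4 reporter mRNA background control in MRTU transfected cells not a receptor target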
Inconclusive results are not listed. Active and inactive are the calls of the source. The calls were made as follows: active = hit-call score of the fitted dose curve at least 0.9, where 1 is the maximum; inconclusive = response in the unintended direction; inactive = score below 0.9.
Metric: outcome

COP(=S)(OC)SCn1nnc2ccccc2c1=O : inactive
CSC(=O)c1c(C(F)F)nc(C(F)(F)F)c(C(=O)SC)c1CC(C)C : inactive
CC(C)NC(=O)N1CC(=O)N(c2cc(Cl)cc(Cl)c2)C1=O : inactive
Cc1c(COC(=O)[C@@H]2[C@H](/C=C(\Cl)C(F)(F)F)C2(C)C)cccc1-c1ccccc1 : inactive

---

Study System: Peroxisome proliferator-activated receptor gamma (Homo sapiens) (UniProt P37231)
Sequence (P37231 whole entry, looked up): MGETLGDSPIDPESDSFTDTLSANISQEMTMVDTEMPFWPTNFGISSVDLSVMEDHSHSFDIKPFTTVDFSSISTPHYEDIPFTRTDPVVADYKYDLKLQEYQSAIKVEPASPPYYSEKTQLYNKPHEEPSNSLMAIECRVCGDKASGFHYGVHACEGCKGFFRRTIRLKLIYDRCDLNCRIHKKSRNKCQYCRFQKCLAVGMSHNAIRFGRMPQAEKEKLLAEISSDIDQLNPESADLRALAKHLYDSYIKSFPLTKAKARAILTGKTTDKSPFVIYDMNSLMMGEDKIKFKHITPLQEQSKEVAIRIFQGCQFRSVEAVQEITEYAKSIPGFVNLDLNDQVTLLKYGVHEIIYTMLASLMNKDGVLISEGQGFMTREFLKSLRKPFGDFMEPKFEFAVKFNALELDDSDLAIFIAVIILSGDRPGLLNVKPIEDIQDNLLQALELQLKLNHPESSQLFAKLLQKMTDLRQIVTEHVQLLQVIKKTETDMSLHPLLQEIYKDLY
Test Summary: ATG_hPPARg_XSP1: Attagene TRANS-FACTORIAL Multi-Species (XSP1) HepG2 Assay for human Peroxisome Proliferator-activated Receptor gamma (PPARg) (AID 2283800)
Results filed as inconclusive are left out. Calls of active or inactive are those of the source. Rule for the calls: active = hit-call score of the fitted dose curve at least 0.9, where 1 is the maximum; inconclusive = response in the unintended direction; inactive = score below 0.9.
Answer with one of the outcomes given here: active, inactive

Below, 4 compounds whose answers are already recorded.
Cc1c(COC(=O)[C@@H]2[C@H](/C=C(\Cl)C(F)(F)F)C2(C)C)cccc1-c1ccccc1 : inactive
CC1(C)C(C=C(Cl)Cl)C1C(=O)OC(C#N)c1cccc(Oc2ccccc2)c1 (stereo not given) : active
COP(=S)(OC)Oc1ccc([N+](=O)[O-])c(C)c1 : active
CC1(C)CCC(=Cc2ccc(Cl)cc2)C1(O)Cn1cncn1 (stereo not given) : inactive

Kindly consider the entry below.
Q: How did this test come out for CC(C)NC(=O)N1CC(=O)N(c2cc(Cl)cc(Cl)c2)C1=O ?
Ans: active
